This listing pairs molecules with measured growth.
# System: MDA-MB-435 melanoma
# method: NCI-60 one-dose screen, 48 h (100 = growth as untreated, 0 = no growth, -100 = all killed)
# conditions: 10 µM unless noted
This is part of a sample that, as a whole, favours compounds with a hit. Of some 83,000 tested, about 20% had one in any assay.
State the answer as a number, implicitly in %.

In plain terms, `O=C(c1ccc(-c2ccccc2)cc1)c1ccc([N+](=O)[O-])cc1` has a documented growth of 92.6

In plain terms, `Fc1cccc(CNc2c3ccccc3nc3ccccc23)c1F` has a documented growth of 87.3

In plain terms, `CC(=O)c1cc(O)c2ccccc2c1O` has a documented growth of 111

In plain terms, `COc1cc(CNS(=O)(=O)c2ccc(C)cc2)ccc1OCc1cn(-c2ccc(F)cc2)nn1` has a documented growth of 94.4

In plain terms, `C=CCn1cc(-c2nc3ccccc3s2)c2cc(-c3ccc4c5c(cccc35)C(=O)N(N)C4=O)ccc21` has a documented growth of 103

In plain terms, `Cc1cc2c(O)c(-c3cc(Cl)ccc3Cl)c3sc(=O)oc3c2cc1C` has a documented growth of 47.3
